Target: X-box-binding protein 1 (Homo sapiens)
Assay: ATG_Xbp1_CIS: Attagene CIS-FACTORIAL HepG2 Assay for human X-box Binding Protein 1 (XBP1) (AID 2282972)
Conditions: HepG2 XBP1 cis-element reporter, Attagene multiplex; actives raise or lower the signal
Calls of active or inactive are those of the source. Rule for the calls: active = hit-call score of the fitted dose curve at least 0.9, where 1 is the maximum; inactive = score below 0.9.
# output must be one of Yes (active), No (inactive)

INSERT INTO measurements (molecule, class_assignment) VALUES
  ('ClCC(Cl)Cl', 'No'),
  ('C[N+](C)(C)CC(=O)[O-]', 'No'),
  ('CCC(C)(C)O', 'No'),
  ('c1ccc(P(c2ccccc2)c2ccccc2)cc1', 'No'),
  ('CC1OC(C)OC(C)O1 (stereo unspecified)', 'No'),
  ('O=c1[nH]c(Cl)c(Cl)cc1Cl', 'No');

Data request: For `O=P(O)(Oc1ccccc1)Oc1ccccc1` , what call appears in the results of this test?
Data returned: No

Data request: Which result was noted for this molecule in the test: CCC(C)c1cc([N+](=O)[O-])cc([N+](=O)[O-])c1OC(=O)C=C(C)C (stereo unspecified)
Data returned: Yes

Data request: What is the recorded call for this molecule in the test? `COc1ccc(CO)cc1`
Data returned: No

---

Experiment: ATG_PPRE_CIS: Attagene CIS-FACTORIAL HepG2 Assay for human Peroxisome Proliferator-activated Response Element (PPRE) (AID 2282958)
Conditions: HepG2 PPRE cis-element reporter, Attagene transcription factor profiling; actives raise or lower the signal
Activity calls are given as the source filed them. Rule for the calls: active = hit-call score of the fitted dose curve at least 0.9, where 1 is the maximum; inactive = score below 0.9.
The categories you may choose from are label 1 (active), label 0 (inactive)

INSERT INTO measurements (compound, class_assignment) VALUES
  ('O=c1[nH]c(Cl)c(Cl)cc1Cl', 'label 1');

Data request: State the result this test recorded for `CC(=O)C=Cc1ccccc1` .
Data returned: label 0

Data request: Call for entry `CC(C)COP(=O)(OCC(C)C)OCC(C)C` :
Data returned: label 1

Data request: Please let me know the test result on file for `Nc1cc(Cl)cc(Cl)c1` .
Data returned: label 0

Data request: Status in this test for c1cc(OCC2CO2)ccc1Cc1ccc(OCC2CO2)cc1 (centres undefined) ?
Data returned: label 1

Data request: Field: outcome | Entry: `N#Cc1cccc(C#N)c1`
Data returned: label 0

---

Test: CCTE_Shafer_MEA_dev_per_network_spike_spike_percent: CCTE's Neural Network Formation Assay for Percent of Spikes in a Network Spike, Shafer Lab (AID 2284054)
Activity calls are given as the source filed them. Rule for the calls: active = hit-call score of the fitted dose curve at least 0.9, where 1 is the maximum; inactive = score below 0.9.
Your reply should match one of these outcome classes. active, inactive

Examples with answers:
INSERT INTO assay_data (compound, class_assignment) VALUES
  ('O.O.O.O.O.[Cd+2].[Cd+2].[Cl-].[Cl-].[Cl-].[Cl-]', 'active'),
  ('Cc1ccc(OP(=O)(Oc2ccc(C)cc2)Oc2ccc(C)cc2)cc1 (tested in a mixture with another compound)', 'inactive'),
  ('O=[As]O', 'active');

Data request: What classification did `O=C(O)CNCP(=O)(O)O` end up with in this test?
Data returned: inactive

Data request: Which result was noted for this compound in the test: `CC(=O)[O-].CC(=O)[O-].O.O.O.[Pb+2]`
Data returned: active

---

Target: Nucleoli Translocation, AR (gene 367)
Test: UPITT_HCI_U2OS_AR_TIF2_Nucleoli_Antagonist: University of Pittsburgh U2OS Androgen Receptor-Transcriptional Intermediary Factor 2 (AR-TIF2) Antagonism High Content Imaging Assay for Nucleoli Translocation (AID 2283997)
Inconclusive results are not listed. Activity calls are given as the source filed them. The calls were made as follows: active = hit-call score of the fitted dose curve at least 0.9, where 1 is the maximum; inconclusive = response in the unintended direction; inactive = score below 0.9.
Reply using exactly one outcome from active, inactive

Worked set:
INSERT INTO assay_data (compound, class_assignment) VALUES
  ('CN(C)N', 'inactive'),
  ('O=CNC(N1CCN(C(NC=O)C(Cl)(Cl)Cl)CC1)C(Cl)(Cl)Cl (stereo not drawn)', 'inactive'),
  ('C=COCCCl', 'inactive'),
  ('c1ccc2c(c1)CCCC2', 'inactive'),
  ('O=C(NCNC(=O)NC1C(=O)NC(=O)N1CO)NC1C(=O)NC(=O)N1CO (stereo not drawn)', 'active');

Data request: Per the assay record, what outcome was assigned to `C[n+]1ccc(-c2cc[n+](C)cc2)cc1` ?
Data returned: inactive

Data request: So what was the verdict on `c1ccc2cc3c(cc2c1)-c1cccc2cccc-3c12` in this test?
Data returned: active

Data request: Test call for this compound, please: `CC1(C)[C@H](C(=O)O[C@H](C#N)c2cccc(Oc3ccccc3)c2)[C@@H]1C=C(Br)Br`
Data returned: inactive
